Test system: SNB-19 CNS
Experiment: NCI tumour cell line growth inhibition, 48 h
observation_type: TGI

Take a look at these entries with their results.
{"columns": ["compound", "observed_value"],
 "data": [
  ["O=C(O)C(CSC(c1ccccc1)(c1ccccc1)c1ccccc1)N=Cc1cccs1 (centres undefined)", "> 100 µM"],
  ["O=S(=O)(O)c1cccc2c(N=Nc3c(O)ccc4ccccc34)cccc12", "> 100 µM"],
  ["CN(c1ccccc1)S(=O)(=O)c1ccccc1[N+](=O)[O-]", "> 100 µM"],
  ["C[C@]12CCC(=O)C=C1CC[C@@H]1[C@@H]2CC[C@]2(C)C(=O)[C@H](n3ccnc3)C[C@@H]12", "> 100 µM"],
  ["O=C(c1cccc(OCc2ccccc2)c1OCc1ccccc1)N1CCSC1=S", "> 100 µM"],
  ["C=C1C(=O)O[C@H]2[C@H]1CC/C(Cn1cc(Cn3ccc4ccccc43)nn1)=C\\CC[C@@]1(C)O[C@@H]21", "15.7 µM"],
  ["CCOC(=O)c1c(C)nc2ccc(Cl)cc2c1-c1ccccc1", "34.9 µM"],
  ["CCc1ccccc1NC(=O)CCc1n[nH]c(=S)o1", "> 100 µM"]
]}

// next item, TGI requested
TGI for O=C(/C=C\c1cccc2ccccc12)c1cccs1 ? 25.3 µM
